- assayName: splicing luciferase reporter signal modulators, primary screen, spliceosome inhibition project, cell-based, HEK293, splice +/- reporter (AID 1101);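 further: HEK293 cells carrying a splicing-competent luciferase reporter gene; test concentration not given here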
- reportedConditions: luminescence, 24 h, higher = more signal, called active from +8 up or from −8 down
testReadout: z-score
Just the number, please, no unit after it.

Take a look at these entries with their results.
For reference, reported z-score for `COC(=O)[C@@]1(Cc2ccc(F)cc2)[C@H]2c3cc(C(=O)N4CCCC4)n(Cc4ccc(C(F)(F)F)nc4)c3C[C@H]2CN1C(=O)c1ccccc1` stands at -0.375

For reference, reported z-score for `CC[C@@H](O[Si](C#C[Si](C(C)C)(C(C)C)C(C)C)(C(C)C)C(C)C)c1cn(Cc2cccc(Cl)c2)nn1` stands at 0.453

For reference, reported z-score for `COCCCNC(=O)[C@@]1(CCC(=O)OC(C)(C)C)N=C(c2ccc(OCCCO)cc2)O[C@H]1c1ccccc1` stands at -0.187

For reference, reported z-score for `CCCNC(=O)[C@@]1(Sc2ccc(C)cc2)CC(=O)N(Cc2cc(C(F)(F)F)cc(C(F)(F)F)c2)[C@@H]1c1ccc(CO)cc1` stands at -1.58

For reference, reported z-score for `[N-]=[N+]=NCc1ccccc1[C@H]1OC(c2ccc(OCCCO)cc2)=N[C@@]1(CCS(=O)(=O)c1ccccc1)C(=O)NCCN1CCOCC1` stands at -0.757

For reference, reported z-score for `COCCOC(=O)N1C(=O)[C@@]2(c3cc(C#CCNC(N)=O)ccc31)[C@H](C(N)=O)[C@H]1C(=O)O[C@H](c3ccccc3)[C@H](c3ccccc3)N1[C@@H]2c1ccc(O)cc1` stands at 0.359

New cases:
For reference, reported z-score for COc1ccc(C(O)C2C=CC3C(=O)N(c4ccccc4)C(=O)C3N2Nc2ccccc2F)c2ccccc12 (configuration not stated) stands at -0.038

For reference, reported z-score for `[N-]=[N+]=NCc1ccccc1C[C@]1(C(=O)N2CCCCC2)COC(c2ccc(OCCCO)cc2)=N1` stands at 0.0234

For reference, reported z-score for `CC(C)N1C(=O)[C@@]2(Cc3ccccc31)c1ccccc1C(=O)N(Cc1ccccc1C(F)(F)F)[C@H]2c1ccc(CO)cc1` stands at -0.352

For reference, reported z-score for CC(CO)N1C(=O)[C@@H]2[C@H]3C(=O)OCC=C[C@H]3OC23C=CCN(c2ccc4ccccc4c2)C(=O)[C@@H]13 (some centres not stated) stands at 0.445

For reference, reported z-score for `CO[C@H]1O[C@H](CO)[C@@H](OC(=O)CCc2ccccc2)[C@@H]2OC(=O)[C@@H](Cc3ccc4ccccc4c3)C/C=C/C[C@H](Cc3ccc4ccccc4c3)C(=O)O[C@@H]12` stands at -0.779

For reference, reported z-score for `C=C(COC)C(=O)CC[C@@H](OC(=O)c1ccccc1-c1ccccc1C(=O)O)c1ccccc1OCCO` stands at -0.14

For reference, reported z-score for `C[C@]1(C(=O)NC2CC2)c2ccccc2C(=O)N(Cc2cc(F)cc(C(F)(F)F)c2)[C@H]1c1ccc(CO)cc1` stands at -0.224

For reference, reported z-score for `Cc1cccc([C@H]2C[C@H]3C(Br)=C[C@@]2(CO)C(=O)[C@]32CO2)c1` stands at -0.34

For reference, reported z-score for CN1C(=O)C2C=CC(C(O)COCc3ccccc3)N(Nc3ccc([N+](=O)[O-])cc3[N+](=O)[O-])C2C1=O (configuration not stated) stands at 0.806

For reference, reported z-score for `C=CCNC(=O)[C@H]1[C@@H]2C(=O)O[C@@H](c3ccccc3)[C@@H](c3ccccc3)N2[C@@H](c2ccc(OCCO)cc2)[C@]12C(=O)N(C(=O)OCCOC)c1ccc(C#CCC(C(=O)OC)C(=O)OC)cc12` stands at 0.345

For reference, reported z-score for CCN1C(=O)C2CC(=O)C3C(CN(S(=O)(=O)c4ccc(C)cc4)C3c3ccc(C)cc3)C2C1=O (configuration not stated) stands at -0.106

For reference, reported z-score for `COc1ccc(C(=O)Nc2ccc(CN3C(=O)[C@@]4(O[C@@H](CC(=O)N(CCO)Cc5ccccc5)[C@H]([Si](C)(C)c5ccc(OC)cc5)[C@H]4C)c4ccccc43)cc2)cc1` stands at -1.78

For reference, reported z-score for `CCOC(=O)C[C@H]1[C@H](OC(=O)c2cc3ccccc3oc2=O)[C@@H](NC(=O)Cc2ccc(OC)cc2)c2cc(OCCCO)ccc2N1C(=O)Cc1ccc(OC)cc1` stands at -1.28

For reference, reported z-score for CCCCCCCCCCC(O)C1C=CC2C(=O)N(C)C(=O)C2N1Nc1ccccc1 (configuration not stated) stands at 0.953

For reference, reported z-score for `C=CC[C@]1(C(=O)NCCN2CCOCC2)N=C(c2ccc(OCCCO)cc2)O[C@H]1c1ccccc1` stands at -0.4

For reference, reported z-score for CN1C(=O)C2C=CC(C(O)c3cccs3)N(N(c3ccccc3)c3ccccc3)C2C1=O (configuration not stated) stands at 2.04
